As shown below, each of these molecules has a reported GI50 value.
Tested on: SK-MEL-2 melanoma
Assay: NCI tumour cell line growth inhibition, 48 h
Value Type: GI50

Smiles Repr	Value Type	Endpoint Result
COc1ccc2cc(/C=C/C(=O)c3ccc(Cl)cc3Cl)ccc2c1	GI50	24 µM
Cn1c(C(=O)c2ccncc2)cc2ccccc21	GI50	> 100 µM
O=C(Nc1cc(C(F)(F)F)ccc1Cl)c1ccc(NC2=C(Cl)C(=O)N(Cc3ccccc3)C2=O)cc1	GI50	18.6 µM
CCNc1cc(-c2cccc(OC(F)(F)F)c2)nc2ccc(N3CCCC3)cc12	GI50	1.81 µM
COc1ccc(NC(=O)CSC2=C(Nc3cccc(Br)c3)C(=O)N(Cc3ccccc3)C2=O)cc1Cl	GI50	> 100 µM
Cc1nc(-c2ccccc2)n2nc(NCCCN3CCOCC3)ncc12	GI50	10.5 µM

---

As shown below, each of these compounds has a reported log10 TGI value.
Tested on: RXF 393 renal
Test: NCI tumour cell line growth inhibition, 48 h
Value Type: log10 TGI (log10 of the value in µM)

Compound	log10 TGI
O=C(OC1C2OC(=O)c3cc(O)c(O)c(O)c3Oc3cc4c(c(O)c3O)-c3c(cc(O)c(O)c3O)C(=O)OCC3OC(O)C(OC(=O)c5cc(O)c(O)c(O)c5Oc5cc6c(c(O)c5O)-c5c(cc(O)c(O)c5O)C(=O)OC1C(COC6=O)OC2O)C(OC(=O)c1cc(O)c(O)c(O)c1)C3OC4=O)c1cc(O)c(O)c(O)c1 (stereo unspecified)	1.72
CC(=O)c1ccc2c(c1)C1C=CCC1[C@H](c1cc3c(cc1Br)OCO3)N2 (stereo partly specified)	0.53
COc1ccccc1C#Cc1ccccc1C#CCCCCO	1.47
CN(C)CCNC(=O)c1ccc(NCCCN(C)CCCNc2ccc(C(=O)NCCN(C)C)c3[nH]c4ccccc4c(=O)c23)c2c(=O)c3ccccc3[nH]c12	0.06
Cc1ncc(C(=O)Nc2ccc(CN3CCN(C)CC3)c(C(F)(F)F)c2)cc1C#Cc1cnc2cccnn12	0.06
CCOC(=O)c1cc2cc3c4c(c2oc1=O)CCCN4CCC3	1.60
Cc1nc(N)nc2c1CCC(O)S2 (stereo unspecified)	1.43
CCc1ccc(NC(=O)NC(=O)c2ccccc2[N+](=O)[O-])cc1Oc1ncc(Cl)cn1	1.87
CC[C@H](Nc1ncnc2nc[nH]c12)c1nc2cccc(F)c2c(=O)n1-c1ccccc1	1.24
C/C=C(/I)CBr	1.49
COc1ccc2cc(/C=C/C(=O)c3ccc(Cl)cc3Cl)ccc2c1	1.82

---

As shown below, each of these molecules has a reported TGI value.
Test system: RXF 393 renal
Assay: NCI tumour cell line growth inhibition, 48 h

Molecule	TGI
CCOC(=O)C1=C(O)C2C3CC4C2C(O)=C(C(=O)OCC)C2C1C3C42 (stereo not given)	> 100 µM
O=c1/c(=C/c2ccccc2[N+](=O)[O-])sc2nc3ccccc3n12	41.9 µM
CC(C)(C)c1cc(C(O)(C(F)(F)F)C(F)(F)F)c2c(c1)C(C(F)(F)F)(C(F)(F)F)OC(C)(C(C)(C)C)N2 (stereo not given)	16.2 µM
N#Cc1ccccc1C(Cl)(Cl)c1cnccn1	> 100 µM
COc1cc(C(C)O)c(S(=O)(=O)CC(C)O)nn1 (stereo not given)	> 100 µM
[O-][N+](=Nc1ccccc1CO)c1ccccc1CO	> 100 µM
FC(F)(c1ccc2ncccc2c1)c1nnc2ccc(-c3ccncc3)nn12	83.8 µM
Clc1ccc(C2=NN=C3C(c4ccccc4)=Nc4ccccc4N3C2)cc1	> 46.2 µM
O=S(=O)(O)c1cc(N=Nc2c(O)ccc3ccccc23)ccc1/C=C/c1ccc(N=Nc2c(O)ccc3ccccc23)cc1S(=O)(=O)O	> 100 µM
CC1(C)OC2[C@@H](CO[C@@]3([C@@H](O)CCO)OC(C)(C)O[C@@H]23)O1 (stereo not given in full)	> 100 µM
CCCCCCCCCCCCCCCCCC1=NC(C)(C)CN1CC(C)O (stereo not given)	31.9 µM
S=c1snc2n1CCN2	> 100 µM
C=C(C(=O)O)[C@@H]1C[C@@H]2O[C@H]1[C@@H](O)[C@@H](C)CCCC(C)=CCC[C@@]2(C)O	> 100 µM
CC(=O)OCC1OC(n2cc(F)c(=O)[nH]c2=O)C(NC(=O)OCc2ccccc2)C(OC(C)=O)C1OC(C)=O (stereo not given)	> 100 µM
O=C(/C=C/c1ccccc1)CSc1ncn[nH]1	> 100 µM
CCOC(=O)c1[nH]c(Br)c(-c2ccc(OC)c(OC)c2)c1Br	0.0424 µM
COc1cc(F)c(F)c(Nc2ccc(I)cc2F)c1NS(=O)(=O)C1(C[C@H](O)CO)CC1	> 9.5 µM
CC(=O)c1c(C)nc(SSc2nc(C)c(C(C)=O)c(-c3ccc(Cl)cc3)c2C#N)c(C#N)c1-c1ccc(Cl)cc1	78.4 µg/mL
O=[N+]([O-])c1ccc2c(c1)N([O-])C1(CCCCC1)[N+]2=O	32.4 µM
CCOC(=O)c1c(N=P(c2ccccc2)(c2ccccc2)c2ccccc2)nnc(-c2ccccc2)c1-c1ccccc1	> 100 µM

---

As shown below, each of these compounds has a reported TGI value.
Tested on: IGROV1 ovarian
Test: NCI tumour cell line growth inhibition, 48 h
Value Type: TGI

Compound	Value Type	Endpoint Result
O=S(=O)(NCCNc1nccc(-c2c(-c3ccc(F)c(O)c3)nc3sccn23)n1)c1ccc(F)cc1	TGI	7.96 µM
CCCCCCCCCCCCCCCCCC1=NC(C)(C)CN1CC(C)O (stereo unspecified)	TGI	27.7 µM
COC/C=C\COC	TGI	> 100 µM
CC1=C(C(=O)CC(=O)C(=O)Nc2cc(C)ccc2C)Sc2ccccc2N1	TGI	> 100 µM
CC(=O)Nc1ccc(C(=O)NN2C(=O)C(Cl)/C2=C/c2ccco2)cc1 (stereo unspecified)	TGI	> 100 µM
COc1ccc(N=NC(C(=O)c2ccccc2)C(=O)c2ccccc2)cc1	TGI	> 100 µM
CCOC(=O)c1nnsc1N/N=C\c1ccc([N+](=O)[O-])cc1	TGI	> 100 µM
O=S(=O)(NC1=NCCN1C(=S)SN1CCn2c1nsc2=S)c1cccc2ccccc12	TGI	32.6 µM
CSc1ccc(-c2cc(-c3nc4ccccc4[nH]3)no2)cc1	TGI	> 100 µM
COC(=O)c1ccc(/C=C2\Oc3ccccc3C2=O)cc1	TGI	> 100 µM
COc1ccc(/C=C/C(=O)/C=C/c2cc3ccccc3[nH]c2=O)cc1	TGI	5.1 µM

---

As shown below, each of these compounds has a reported TGI value.
Tested on: COLO 205 colon
Experiment: NCI tumour cell line growth inhibition, 48 h

Compound	TGI
Cc1nc(C)c(N2CCN(S(=O)(=O)N(Cc3ccccc3)Cc3ccccc3)CC2)c(=O)[nH]1	> 100 µM
O=C(c1nc2ccc([N+](=O)[O-])cc2[nH]c1=O)C(O)c1ccc2c(c1)OCO2 (centres undefined)	> 100 µM
CC(=O)c1ccc2c(c1)C1C=CCC1[C@H](c1cc3c(cc1Br)OCO3)N2 (some centres undefined)	5.71 µM
COc1cc(F)c(F)c(Nc2ccc(I)cc2F)c1NS(=O)(=O)C1(C[C@H](O)CO)CC1	> 2.51 µM
O=C1c2ccccc2C(=O)c2cc(N=Nc3c(O)ccc4ccccc34)ccc21	> 100 µM
NS(=O)(=O)c1ccc(-n2nc3c(c2-c2ccc(Cl)cc2)Cc2ccccc2-3)cc1	64.1 µM
CS(=O)(=O)CCNCc1cc(-c2cc3c(Nc4ccc(OCc5cccc(F)c5)c(Cl)c4)ncnc3s2)cs1	> 25 µM
O=S(=O)(NCCNc1nccc(-c2c(-c3ccc(F)c(O)c3)nc3sccn23)n1)c1ccc(F)cc1	36.1 µM
CCCCCCCCCCCCCCCCNC(=O)C(=O)/C=C(\O)c1ccc(C)cc1	> 10 µM

---

System: CAKI-1 renal
Test: NCI tumour cell line growth inhibition, 48 h

Compound	TGI
COc1cc(C(C)O)c(S(=O)(=O)CC(C)O)nn1 (stereo not given)	> 100 µM
Cn1c(C(=O)c2ccncc2)cc2ccccc21	> 100 µM
COc1cc(F)c(F)c(Nc2ccc(I)cc2F)c1NS(=O)(=O)C1(C[C@H](O)CO)CC1	> 10 µM
Cc1ccc(NC(=O)CCc2nc(N)nc(N)c2-c2ccccc2)cc1C	> 100 µM
CC[C@@]1(O)C(=O)OCc2c1cc1n(c2=O)Cc2c-1nc1ccccc1c2/C=N\NC(=O)C1CCCN1 (stereo not given in full)	> 23.5 µM

---

System: SR leukemia
Test: NCI tumour cell line growth inhibition, 48 h; in the data active = GI50 below about 0.43 µM; inactive = the rest
Outcomes: True = active, False = inactive

Compound	Cat
CCNc1cc(-c2cccc(OC(F)(F)F)c2)nc2ccc(N3CCCC3)cc12	False
CN(CCCCCl)P(=O)(OCCS(=O)(=O)CC(NC(=O)CCC(N)C(=O)O)C(=O)NC(C(=O)O)c1ccccc1)OCC1OC(n2ccc(N)nc2=O)C(F)(F)C1O (stereo not given)	True
O=[N+]([O-])c1cc(Cl)c2[nH]c3c(Cl)cc([N+](=O)[O-])cc3c2c1	True
COc1cc2nc(SCc3cc(OC)c(OC)c(OC)c3)n(Cc3ccccc3)c(=O)c2cc1OC	False
CCOC(=O)Nc1nc2ccc(OC)cc2s1	False
[C](#Cc1ccccc1)[Hg][C]#Cc1ccccc1	False
O=C1/C(=C/c2cccc(Br)c2)COc2ccc(O)cc21	False
Cc1nn[n-]n1.N.N.N.N.N.[Cl-].[Co+3]	False
FC(F)(c1ccc2ncccc2c1)c1nnc2ccc(-c3ccncc3)nn12	False
Cc1ncc(C(=O)Nc2ccc(CN3CCN(C)CC3)c(C(F)(F)F)c2)cc1C#Cc1cnc2cccnn12	True
